Numbers sourced from patent US20150274826A1.

systemUnderTest: T1, human CD47 (human, UniProt Q08722 19-323)
T1 construct: whole, on cells; also called CD47 on human RBCs; CD47 on OV10 cells
T1 sequence (Q08722 19-323): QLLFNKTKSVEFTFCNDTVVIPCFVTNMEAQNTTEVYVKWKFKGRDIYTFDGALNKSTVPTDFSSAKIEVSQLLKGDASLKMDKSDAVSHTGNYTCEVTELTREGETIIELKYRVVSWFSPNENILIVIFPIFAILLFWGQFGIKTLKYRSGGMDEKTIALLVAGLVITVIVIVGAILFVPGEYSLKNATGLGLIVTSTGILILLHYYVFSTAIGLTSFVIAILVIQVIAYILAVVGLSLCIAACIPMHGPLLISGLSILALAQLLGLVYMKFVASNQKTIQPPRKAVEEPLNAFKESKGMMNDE
assayComment: flow cytometry on RBCs, CHO supernatant 10 ng/ml
propertyName: mean fluorescence relative to chimeric antibody (ratio)
Report only the number, with the unit ratio understood.

Record Clone 24 (pVxK7b-037-hum24-LC / pVxK7b-037-hum24-HC) (antibody, human IgG1, kappa, V domains shown, also called Cl 24) VH: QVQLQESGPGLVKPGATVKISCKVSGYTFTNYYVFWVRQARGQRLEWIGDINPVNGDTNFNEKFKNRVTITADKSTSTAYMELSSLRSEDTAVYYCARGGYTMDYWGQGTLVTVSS VL: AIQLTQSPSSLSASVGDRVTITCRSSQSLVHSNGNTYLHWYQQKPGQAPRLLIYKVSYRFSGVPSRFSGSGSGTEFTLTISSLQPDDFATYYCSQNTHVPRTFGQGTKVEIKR , field mean fluorescence relative to chimeric antibody: 0.8

Record Clone 2 (pVxK7b-037-hum02-LC / pVxK7b-037-hum02-HC) (antibody, human IgG1, kappa, V domains shown) VH: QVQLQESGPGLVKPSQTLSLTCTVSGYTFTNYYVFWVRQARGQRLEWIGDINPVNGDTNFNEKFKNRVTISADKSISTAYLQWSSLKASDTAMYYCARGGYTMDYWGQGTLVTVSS VL: DVVMTQSPLSLPVTLGQPASISCRSSQSLVHSNGNTYLHWYQQKPGQAPRLLIYKVSYRFSGVPSRFSGSGSGTEFTLTISSLQPDDFATYYCSQNTHVPRTFGQGTKVEIKR , field mean fluorescence relative to chimeric antibody: 1

Record Clone 16 (pVxK7b-037-hum16-LC / pVxK7b-037-hum16-HC) (antibody, human IgG1, kappa, V domains shown) VH: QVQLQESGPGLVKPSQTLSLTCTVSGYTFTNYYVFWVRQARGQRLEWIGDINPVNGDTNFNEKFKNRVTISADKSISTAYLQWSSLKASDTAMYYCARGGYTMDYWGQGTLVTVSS VL: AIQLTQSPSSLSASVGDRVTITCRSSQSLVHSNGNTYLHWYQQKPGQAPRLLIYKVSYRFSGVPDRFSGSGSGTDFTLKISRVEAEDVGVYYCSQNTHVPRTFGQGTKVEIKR , field mean fluorescence relative to chimeric antibody: 0.9

Record Clone 21 (pVxK7b-037-hum21-LC / pVxK7b-037-hum21-HC) (antibody, human IgG1, kappa, V domains shown) VH: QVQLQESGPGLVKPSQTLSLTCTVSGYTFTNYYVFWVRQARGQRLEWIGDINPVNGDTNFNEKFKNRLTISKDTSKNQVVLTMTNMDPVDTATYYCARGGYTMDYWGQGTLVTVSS VL: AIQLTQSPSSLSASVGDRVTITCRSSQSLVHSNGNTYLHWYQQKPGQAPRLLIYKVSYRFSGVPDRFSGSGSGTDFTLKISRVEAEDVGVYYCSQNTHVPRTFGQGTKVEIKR , field mean fluorescence relative to chimeric antibody: 1.2

Record Clone 15 (pVxK7b-037-hum15-LC / pVxK7b-037-hum15-HC) (antibody, human IgG1, kappa, V domains shown) VH: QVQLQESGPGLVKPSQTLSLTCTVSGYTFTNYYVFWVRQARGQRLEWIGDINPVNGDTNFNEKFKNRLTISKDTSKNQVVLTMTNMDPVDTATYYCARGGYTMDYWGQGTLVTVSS VL: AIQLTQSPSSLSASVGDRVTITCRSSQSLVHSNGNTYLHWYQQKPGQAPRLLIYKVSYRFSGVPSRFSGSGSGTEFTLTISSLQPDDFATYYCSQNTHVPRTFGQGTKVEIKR , field mean fluorescence relative to chimeric antibody: 1
